# Test system: MCF-7 cells
# measurement.description: Cytotoxicity assay (ATPLite cell viability, 72 h) on MCF-7 cells
# Assay type: cell-based
# study.conditions: Homo sapiens, MCF7; 72 hours incubation, triplicate, ATP levels (ATPLite), inhibition of growth vs DMSO only control
observable: pIC50
Scale note: pIC50 = -log10(concentration in M).

Here is how some compounds turned out for pIC50.
Give measured pIC50 for COC(=O)c1ccc(C)c(NS(=O)(=O)c2ccc(OC)cc2)c1 (MCF-7 cells).
6.64

Give measured pIC50 for COC(=O)c1ccc(C)c(NS(=O)(=O)c2ccc(C)cc2)c1 (MCF-7 cells).
6.55

Give measured pIC50 for CCOc1ccc(S(=O)(=O)Nc2cc(C(=O)OC)ccc2C)cc1 (MCF-7 cells).
6.80

---
Give measured pIC50 for COC(=O)c1ccc(C)c(NS(=O)(=O)c2ccc(Cl)cc2)c1 (MCF-7 cells).
5.96
